B1: KRT71 (parent)
chain: FGSRSLYSLGGVRSLNVASGSGKS

- Variants of: B1
- protocol.summary: protein stability index of a GFP-peptide fusion (GPS, HEK-293T) (PSI 1-6); higher = more stable;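 also: lentivirally expressed fusions sorted by FACS into six bins by GFP to DsRed ratio, PSI derived from sequencing read proportions per bin multiplied by bin number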
- test.settings: c terminus: a fixed tail appended
parameter.measured: protein stability index
Give bare numbers.

Exam item: GET /values?readout=protein stability index&item= F1W
Marked response: 2.16

Respectfully, I request protein stability index for each entry included below.
1. G22I
2. A18P
3. S24W
4. S5L
5. L9Y
6. S5F
7. N16M

Marked response:
1.57
2.2
1.74
2.15
1.77
1.95
1.83

Respectfully, I request protein stability index for each entry included below.
1. S3K
2. S14P
3. L9W
4. K23H
5. S8M
6. G10E
7. S24E
8. K23D

Marked response:
1. 1.78
2. 1.71
3. 1.87
4. 2.03
5. 1.38
6. 2.31
7. 2.21
8. 1.92

Respectfully, I request protein stability index for each entry included below.
1. S24I
2. V12K
3. R4F
4. V12L

Marked response:
1.61
2
1.58
2.21

Respectfully, I request protein stability index for each entry included below.
1. R4M
2. G20V
3. V12E
4. G20T
5. R4K
6. K23W
7. G22K
8. S3H

Marked response:
1: 1.88; 2: 1.92; 3: 2.3; 4: 2.16; 5: 2.14; 6: 2.56; 7: 1.73; 8: 2.06

Respectfully, I request protein stability index for each entry included below.
1. S8Q
2. G11H
3. L6C
4. G10H
5. G22M
6. L15F
7. A18G

Marked response:
[1.72, 2.33, 2.04, 2.56, 1.93, 1.77, 2.1]

Respectfully, I request protein stability index for each entry included below.
1. L6D
2. G2A
3. L6F
4. S3F
5. S14L

Marked response:
1: 3.7; 2: 2.02; 3: 3.13; 4: 2.22; 5: 2.04

Respectfully, I request protein stability index for each entry included below.
1. S21V
2. L9N
3. A18T
4. R4P

Marked response:
1: 1.41; 2: 2.51; 3: 1.62; 4: 1.35
